Task for the reader: assign each of the following sequences its reported apparent KD of K4 kissing-loop reporter.
- Tested on: K4 kissing-loop RNA reporter;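 further: bound reporter read as fluorescence of individual clusters on recovered sequencing chips by microscopy, with normalized cluster intensities fitted with a binding model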
- methodSummary: apparent KD of K4 kissing-loop reporter; higher = weaker reporter binding
- testParameters: Eterna round: R107; input ligand: theophylline 20 uM
Quick reminder: number only, in nM, skip the unit.

**Q:** Requested read-out: apparent KD of K4 kissing-loop reporter. Entry: GUAUCGCUAGGAGGAUAUUUCAAAUAAUAAAUAAAUGGAUAUACGGAGUGAUGUUCCGAUUUACGGAAAGAAGGCCUAGUGAUAC [FMN B 1]
**A:** 190

**Q:** # apparent KD of K4 kissing-loop reporter lookup, item AUUUAAUUAACUGAUACCAGACUUUUUGUUUUGUUUAUUACUAGUGAUGUUAGUGUUUCUGUCCCUUGGCAGCAGUAUCUACUUA [JR_ExcTheophyB_Sub015]
**A:** 239

**Q:** What value of measured apparent KD of K4 kissing-loop reporter is listed for CUCACAGUGAUGUUGUGGGCCGAGAGUGAUACCAGCCGUAUUUGUGGCCCUUGGCAGCGCAGAACCAGUGAUGUUGGUUACUUGG [Same State Theophylline A GF 23] ?
**A:** 277

* * *

Assign apparent KD of MS2 coat protein to each entry below.
- System: MS2 coat protein
- methodSummary: apparent KD of MS2 coat protein; designed switch direction (-1 OFF switch, 1 ON switch): -1; higher = weaker reporter binding
- testParameters: input ligand: none
Write the answer as a number in nM, unit excluded.

**Q:** Could you tell me which apparent KD of MS2 coat protein is on file for UUGUUGUGUGUAGGAUAUGCAUGUUAUUAUUAUGCAGAAGGACAUGAGGAUCACCCAUGUGUAUUAUUAUUAUAUAUUAUAUAU [Title] (Eterna round: R96, puzzle: Exclusion NG 1) ?
**A:** 22.5

**Q:** # get_value(readout='apparent KD of MS2 coat protein', item= AGUACUAACACGGGUGUGUUAGUACAAUAAGCUUGUGAAACAUGAGGAUCACCCAUGUCCUCAUAAGCUCGUCUUAU [salish99_TOv2_r3_075] (Eterna round: R96, puzzle: Sensor v3, turn-off variant 2) )
**A:** 16.6

**Q:** Name the reported apparent KD of MS2 coat protein value associated with the sequence UGUGUCCGGGAGGAUAUCAGAACGCUAGUGGUCUGAGAAGGCCUAACAUGAGGAUCACCCAUGUGAUUAUUUAU [Eternabot (L2) Solution 51] (Eterna round: R97, puzzle: Exclusion 6)
**A:** 52.5

**Q:** Would you kindly share the measured apparent KD of MS2 coat protein for UAAAUUGGGUAGGAUAUGUUUGUUUAAAGAGCCACAGAAGGACCCACAUGAGGAUCACCCAUGUAUCACCUAUG [Eternabot (L2) Solution 60] (Eterna round: R97, puzzle: Exclusion 6) ?
**A:** 27.1

**Q:** Which value of apparent KD of MS2 coat protein has been reported for GAAAAUGUGGAGGAUAUCGACUUCGAAAGAAGUCGAGAAGGCCACACAUGAGGAUCACCCAUGUGAUGCCAAUA [Omei Ex6 H9] (Eterna round: R97, puzzle: Exclusion 6) in the records?
**A:** 284

**Q:** Tell me the measured apparent KD of MS2 coat protein of UAUUAGCAAGCGAGUGGGUACAUGAGGAUCACCCAUGUGCUCGUCUUAUAAGGUACUGUGACGAAAGUCACGGUACC [Eli 91 v33] (Eterna round: R97, puzzle: Sensor, turn-off variant 1) , please.
**A:** 13.4

**Q:** Which apparent KD of MS2 coat protein reading was recorded for the sequence CAUGGCUACUAGGAUAUGUCGCGAUGGACGCAAACAGAAGGAGUAACAUGAGGAUCACCCAUGUUGUGACCUAA [Mabiaris] (Eterna round: R97, puzzle: Exclusion 6) ?
**A:** 28.9

**Q:** Can you share its apparent KD of MS2 coat protein? I mean this sequence: AUAUUACAUGAGGAUCACCCAUGUGAGGAUAUGGAGCGAGACUGUCCUGUCGCGUACACCAGAAGGCGCGGGCG [1st #53] (Eterna round: R97, puzzle: Exclusion 1)
**A:** 31

**Q:** Give its apparent KD of MS2 coat protein value. Item: AAAUAGCUAGAGGAUAUCGGAUAGGAUUUACUACGAGAAGGUUAGACAUGAGGAUCACCCAUGUUGUGUUGGGA [EX6 #19] (Eterna round: R97, puzzle: Exclusion 6)
**A:** 67.9

**Q:** # lookup: apparent KD of MS2 coat protein of CCGCCAUGAGGAUAUCCAUCUGGAUCAGACAAGAUCCUGAUGGAGAAGGGACAUGAGGAUCACCCAUGUUGCGG [Mat - Exclusion 4 - Eli Mod - D55] (Eterna round: R97, puzzle: Exclusion 4)
**A:** 60

**Q:** Give the measured apparent KD of MS2 coat protein of UUGGUUGUGGUAGGAUAUCCGUUGGAAACCUUCGGAGAAGGACCACAGUCACUGGGUCUUUGUCUGGUGGACGGUUUCGACCGU [pwkr exNG1 F6.23] (Eterna round: R96, puzzle: Exclusion NG 1) .
**A:** 559

**Q:** What value of apparent KD of MS2 coat protein has been reported for the following sequence? UAUUAGUAAGGAUAUGAGCCGUAGGACGAAAGUCCUACGGCUCAGAAGGUACAUGAGGAUCACCCAUGUUCAUU [Mod of Fisker 5 - Jieux - Exclusion 4] (Eterna round: R97, puzzle: Exclusion 4)
**A:** 15.9

**Q:** I am curious: what apparent KD of MS2 coat protein value has been reported for UUCCUCUCUUCUCUGUCUCACAUGAGGAUCACCCAUGUAACAUAGGAUAUGCUUGGUAUUUAAAUGCAGAAGGAUGUUAGUAUU [JR_ExcNG3_Sub082] (Eterna round: R96, puzzle: Exclusion NG 3) ?
**A:** 30.2

**Q:** GET /values?readout=apparent KD of MS2 coat protein&item= CCUGUGCUAUAGGAUAUGGCUUAGCAAUAUGCGCCAGAAGGAUAGACAUGAGGAUCACCCAUGUACGACGAAGC [Eternabot (L2) Solution 65] (Eterna round: R97, puzzle: Exclusion 6)
**A:** 24.3

**Q:** What does the record list as apparent KD of MS2 coat protein for CUUAGUAUCUAGGAUAUCUAGUACAUAGUAUCUAGAGAAGGAGAUACAUGAGGAUCACCCAUGUUCUGUGUUCU [Exclusion 6 - 1:b] (Eterna round: R96, puzzle: Exclusion 6) ?
**A:** 24.8

**Q:** Requested read-out: apparent KD of MS2 coat protein. Entry: CCGCUCCGUGUAGGAUAUUGGCGUGCUCUGCGCCGAGAAGGACAUGAGGAUCACCCAUGUAUGUUAUUAUCACGCGUGGCGCAU [Design 78] (Eterna round: R96, puzzle: Exclusion NG 1)
**A:** 18.6

**Q:** So what's the measured apparent KD of MS2 coat protein for this one? UUGUUGUAUGUAGGAUAUGCAUAUUGUUAUUAUGCAGAAGGACAUGAGGAUCACCCAUGUAUAUUACUAUUAUGUACUAUAUAU [MOD of Hoglahoo's a different Title] (Eterna round: R96, puzzle: Exclusion NG 1)
**A:** 32.6

**Q:** Consider the sequence shown here: CAGCCUCUUGUGAGGAUAUUCUGCUAAGCGAGGCGGAAGAAGGUACAUGAGGAUCACCCAUGUUGGCGGAAUAA [Eternabot (Original) Solution 21] (Eterna round: R97, puzzle: Brourd's mod of Exclusion 4) What is its recorded apparent KD of MS2 coat protein?
**A:** 37.6
